meta.source: ChEMBL document CHEMBL1149475

System: A549
Assay Explanation: Antiproliferative activity against human A549 cells
Format: functional
Readout Type: GI50

Previously resolved entries follow.
COc1c(C)c(OC)c2c(c1O)[C@@H]1[C@@H]3Cc4c(OC)c(C)c(OC)c(O)c4[C@H](CNC(=O)c4cc5cc(OCCN6CCOCC6)ccc5o4)N3[C@@H](C#N)[C@H](C2)N1C : 57.5 nM
COc1c(C)c(OC)c2c(c1O)[C@@H]1[C@@H]3Cc4c(OC)c(C)c(OC)c(O)c4[C@H](CNC(=O)c4ccc5ccccc5n4)N3[C@@H](C#N)[C@H](C2)N1C : 10.7 nM
COc1c(C)c(OC)c2c(c1O)[C@@H]1[C@@H]3Cc4c(OC)c(C)c(OC)c(O)c4[C@H](CNC(=O)c4cc5cc(OC6CCOCC6)ccc5o4)N3[C@@H](C#N)[C@H](C2)N1C : 18.9 nM

Okay, next one:
Q: Let me know recorded GI50 for "COc1c(C)c(OC)c2c(c1O)[C@@H]1[C@@H]3Cc4c(OC)c(C)c(OC)c(O)c4[C@H](CNC(=O)c4cc5cc(OC6CCOCC6)ccc5o4)N3[C@@H](O)[C@H](C2)N1C" , thanks.
A: 20.6 nM

====

Assay Explanation: Cmax in Balb/C mouse at 0.5 mg/kg, iv and 2 mg/kg, ip
Assay type: ADME, organism-based
Applied Conditions: in vivo
Readout Type: Cmax (nM)
One number for each entry, in nM.

COc1c(C)c(OC)c2c(c1O)[C@@H]1[C@@H]3Cc4c(OC)c(C)c(OC)c(O)c4[C@H](CNC(=O)c4ccc5ccccc5n4)N3[C@@H](C#N)[C@H](C2)N1C : 1100

Okay, next one:
Q: Let me know recorded Cmax for "COc1c(C)c(OC)c2c(c1O)[C@@H]1[C@@H]3Cc4c(OC)c(C)c(OC)c(O)c4[C@H](CNC(=O)c4cc5cc(OC6CCOCC6)ccc5o4)N3[C@@H](C#N)[C@H](C2)N1C" , thanks.
A: 3700

====

For each record, write down the corresponding bioavailability.
Assay Explanation: Bioavailability in Balb/C mouse at 0.5 mg/kg, iv and 2 mg/kg, ip
Type: ADME, organism-based
Applied Conditions: in vivo

For every item in the list below, what is its measured bioavailability?
1. COc1c(C)c(OC)c2c(c1O)[C@@H]1[C@@H]3Cc4c(OC)c(C)c(OC)c(O)c4[C@H](CNC(=O)c4cc5cc(OC6CCOCC6)ccc5o4)N3[C@@H](C#N)[C@H](C2)N1C
2. COc1c(C)c(OC)c2c(c1O)[C@@H]1[C@@H]3Cc4c(OC)c(C)c(OC)c(O)c4[C@H](CNC(=O)c4ccc5ccccc5n4)N3[C@@H](C#N)[C@H](C2)N1C

A:
38%
46%

====

Assay Explanation: Clearance in Balb/C mouse at 0.5 mg/kg, iv and 2 mg/kg, ip
Type: ADME, organism-based
Applied Conditions: in vivo
For each record, write down the corresponding clearance.
Numbers only, in mL/min/kg.

COc1c(C)c(OC)c2c(c1O)[C@@H]1[C@@H]3Cc4c(OC)c(C)c(OC)c(O)c4[C@H](CNC(=O)c4ccc5ccccc5n4)N3[C@@H](C#N)[C@H](C2)N1C : 72

Q: Let me know recorded clearance for "COc1c(C)c(OC)c2c(c1O)[C@@H]1[C@@H]3Cc4c(OC)c(C)c(OC)c(O)c4[C@H](CNC(=O)c4cc5cc(OC6CCOCC6)ccc5o4)N3[C@@H](C#N)[C@H](C2)N1C" , thanks.
A: 45
